Entries and their measured GI50 follow.
# Tested on: SK-OV-3
# experiment-description: NCI tumour cell line growth inhibition, 48 h
Activity calls are given as the source filed them. Cut-off read from the data, not from the text of the source: active = GI50 up to about 1.1 µM and inactive = higher.

Incoming: Value lookup for GI50; key = O=c1[nH][nH]c(=S)c(=O)[nH]1
Outgoing: > 100 µM (inactive)

====

# System: MOLT-4
# experiment-description: NCI tumour cell line growth inhibition, 48 h
The source made the active and inactive calls. No stated cut-off is given here; in the data, active = GI50 up to about 1.1 µM and inactive = higher.
Choose one outcome from this list and give only that: 1 (yes) = active, 0 (no) = inactive

>>> print(df.to_string())
                                   compound  class_assignment
0  N=C(N)N/N=C/c1oc(-c2ccc(S(=O)(=O)O)o2)c(-c2ccc(S(=O)(=O)O)o2)c1[N+](=O)[O-]            0 (no)
1      Cn1c2ccccc2n2c3nc4ccccc4nc3c(C#N)c12            0 (no)
2  NC(=O)CCC(NC(=O)Cc1ccccc1)C(=O)O.NC(CCC(=O)NC(=O)Cc1ccccc1)C(=O)O (stereo unspecified)            0 (no)
3  COC1OC(CO)C(O)C(O)C1Br (stereo unspecified)            0 (no)

Incoming: Given Cc1ccc(NC2=CC(=O)C(NO)c3ccccc32)cc1 (stereo unspecified) , state the outcome it received in this test.
Outgoing: 0 (no)

Incoming: Try this compound too: Cc1ccc(SC2=C(N(C)C)C(=O)c3ccccc3C2=O)cc1
Outgoing: 1 (yes)

Incoming: Try this compound too: O=c1cc(CO)n(CCc2c[nH]c3ccccc23)cc1O
Outgoing: 0 (no)

Source of measurements: ChEMBL document CHEMBL1201862
